# Tested on: c-Abl (mouse)
# assay.name: phosphorylation enrichment, bacterial display (enrichment ratio); higher = better substrate or ligand; peptides without Tyr show the background;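 note: 11-residue human phosphosite peptides and single-mutation variants displayed on the E. coli surface, counted by deep sequencing, each peptide's frequency after selection divided by its frequency in the unselected input library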;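 note: frequency after pTyr selection over input frequency; kinase dosed for 20-30% of maximal phosphorylation in three min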
Some sequences, each annotated with its measured phosphorylation enrichment.

[
  {
    "construct.sequence": "NKPTVYGVSPN [ABL1_Y226]",
    "phosphorylation enrichment": 0.67
  },
  {
    "construct.sequence": "ATYRGYDSDNP [MMUT_Y146_H143Y]",
    "phosphorylation enrichment": 0.476
  },
  {
    "construct.sequence": "EEEFEYMNRRR [ERBB3_Y1199_D1194E_YF]",
    "phosphorylation enrichment": 0.808
  },
  {
    "construct.sequence": "KVALVYGQMNQ [ATP5F1B_Y269_E274Q]",
    "phosphorylation enrichment": 0.829
  },
  {
    "construct.sequence": "PGIRMYRVQFN [LRFN1_Y454_Q455R_YF]",
    "phosphorylation enrichment": 0.512
  },
  {
    "construct.sequence": "APGNAYGDAGY [SYP_Y250_D248N]",
    "phosphorylation enrichment": 0.607
  },
  {
    "construct.sequence": "IFETDYFQKGG [INSR_Y1189_R1191Q_YF]",
    "phosphorylation enrichment": 0.662
  },
  {
    "construct.sequence": "FSQQVYRVNLS [FAT4_Y480]",
    "phosphorylation enrichment": 0.532
  },
  {
    "construct.sequence": "FLAVGYHKLHI [IDS_Y225_P228L]",
    "phosphorylation enrichment": 0.833
  },
  {
    "construct.sequence": "RRNTPYSQTMK [TET2_Y819_S817T]",
    "phosphorylation enrichment": 0.422
  },
  {
    "construct.sequence": "GGQVFHNSEFG [FLT4_Y1333_Y1333H_YF]",
    "phosphorylation enrichment": 0.531
  }
]

----------
Some sequences, each annotated with its measured phosphorylation enrichment.
# Tested on: AncSZ
# assay.name: phosphorylation enrichment, bacterial display (enrichment ratio); higher = better substrate or ligand; peptides without Tyr show the background

[
  {
    "construct.sequence": "RNAAEYPLSSG [ABL1_Y139_L140P]",
    "assay.target": "AncSZ",
    "phosphorylation enrichment": 0.426
  },
  {
    "construct.sequence": "ELAINYQEQAS [SLC9A9_Y591]",
    "assay.target": "AncSZ",
    "phosphorylation enrichment": 0.923
  },
  {
    "construct.sequence": "GESLTYVSTTF [C1orf162_Y120_A121V]",
    "assay.target": "AncSZ",
    "phosphorylation enrichment": 0.954
  },
  {
    "construct.sequence": "LVRPPYSYSAL [FOXI1_Y126]",
    "assay.target": "AncSZ",
    "phosphorylation enrichment": 0.952
  },
  {
    "construct.sequence": "KIFPEYLSNWT [AIFM1_Y347_L344F]",
    "assay.target": "AncSZ",
    "phosphorylation enrichment": 0.914
  },
  {
    "construct.sequence": "VKMLEYRGKDV [CASP5_Y74_L75R]",
    "assay.target": "AncSZ",
    "phosphorylation enrichment": 0.68
  },
  {
    "construct.sequence": "RLSELYLRRNR [CFAP410_Y68]",
    "assay.target": "AncSZ",
    "phosphorylation enrichment": 1.3
  }
]
